test system: Malme-3M; test: NCI tumour cell line growth inhibition, 48 h
Activity calls are given as the source filed them. Rule as the data show it: active = GI50 up to about 1.1 µM and inactive = higher.
API: response.call in active, inactive

Hey, what did the test say about COc1ccccc1/[N+]([O-])=C/c1ccccc1OC(=S)S ?
inactive

// param item: CCCCCCOC(=O)/C=C/[C@]1(CO)C/C(=C/CC(C(C)C)C(C)C)C(=O)O1 ; yields the recorded call
inactive

What did this assay record as the result for CCc1ccccc1NC(=O)CCc1nnc(S)[nH]1 ?
inactive

Any idea what this test logged for OCCN(CCO)c1ccc2c(-c3ccccc3)cc(N(CCO)CCO)nc2n1 ?
inactive

Hi team, can someone confirm the assay call for CN(CC(=O)O)c1ncc2c(n1)-c1ccccc1OC2 ?
inactive

What did this assay record as the result for Cc1ccc2c(=O)cc(Cc3csc4ccccc34)[nH]c2n1 ?
inactive

Please state the recorded outcome for this compound: CCOC(=O)/C(=C\c1ccc(CO)o1)P(=O)(OCC)OCC
inactive

# outcome recorded in this test, key = O=C(O)c1ccccc1NC(=S)c1ccccc1
inactive

How was CN(C)C(=S)Nc1nnc(NC23CC4CC(CC(C4)C2)C3)s1.[O-][Cl+3]([O-])([O-])O classified in this test?
inactive

Which outcome was entered for the compound CC(CCC(=O)O)[C@H]1CCC2[C@H]3C(CC(=O)[C@@]21C)[C@@]1(C)CCC(O)C[C@H]1C[C@@H]3O (some centres not stated) in this test?
inactive

Fill in: this test's call for Cc1ccc(Nc2nc(=O)c3c([nH]c4ccccc43)s2)cc1 is ___
inactive

How was COc1ccc2nc3ccccc3c(NCCCCN(CCCl)CCCl)c2c1 classified in this test?
active

Hello, I am checking results. What call was entered for O=C1Cc2c(-c3ccccc3)cc(-c3ccccc3)nc2-c2ccccc2N1 ?
inactive

Identify the outcome logged in this assay for the compound shown: CC12CC(C#N)(C#N)C(C#N)(CO1)C(=N)O2 (configuration not stated)
inactive

What was the test verdict on Clc1ccc(C[P+]2(c3ccccc3)CCCCC2)cc1.[O-][Cl+3]([O-])([O-])[O-] ?
inactive

What did this assay record as the result for CCCC1(N)CC(OC)OC(C)C1O (configuration not stated) ?
inactive

Hi team, can someone confirm the assay call for FC(F)(F)c1ccccc1/C=N/C12CC3CC(CC(C3)C1)C2 ?
inactive

Hey, what did the test say about Cc1ccc(S(=O)(=O)OC2CN3CCC2CC3)cc1 (configuration not stated) ?
inactive

Recorded test outcome, item Cc1cc(O)c2c(=O)c3ccccc3[nH]c2c1
inactive

Tell me the assay call for COc1cc(OC)cc(OCc2ccc3nc(-c4ccccc4)c(Cl)nc3c2)c1 please.
inactive

GET /call?item= CC1=C(C(=O)Nc2cc(=O)n(C)c(=O)n2C)C(c2ccc([N+](=O)[O-])cc2)C(C(=O)Nc2cc(=O)n(C)c(=O)n2C)=C(C)N1 returns the recorded outcome of this test.
inactive

Called result for Cc1cc2[nH]c3c(C#N)c(-c4ccccc4)c(/C=N/c4ccc(Cl)cc4)c(=O)n3c2cc1C
inactive

Value source: ChEMBL document CHEMBL1201862
